- Measurement notes: In vivo pharmacokinetic study after oral administration
- Measurement setup: male, Sprague-Dawley, rat, plasma, rats, 40 mg/kg, mean ± SD, n = 3
- Experimental: Male Sprague–Dawley rats (body weight 200 ± 20 g) were randomly divided into three groups (n = 3). Sprague–Dawley rats (200 ± 20 g) were obtained from Animal Experiment Center of Shanghai Institute of Material Medica, Shanghai, China. All animal experiments were performed by strictly following Institutional Animal Care and Use Committee (IACUC) guidelines (71044, 10 August 2019). Prior to the experiments, the rats were fasted overnight with free access to water. […]
Property label: AUC(0-t) (µg·h/mL)
Give bare numbers, in µg·h/mL.

input: Please indicate AUC(0-t) recorded for COc1ccc2c(c1)c(CC(=O)O)c(C)n2C(=O)c1ccc(Cl)cc1 [IMC, Indomethacin]
output: 1240

These data points were gathered from paper PMC7076385.
